Target: DGAT2
Conditions: ASO, HepG2, 10 µM
After the bases stand the sugars from the 5' end (letter, count) and the backbone: PS all phosphorothioate, else s phosphorothioate and o phosphodiester by linkage. Methylation of C is not given here. e = 2'-O-(2-methoxyethyl) (MOE); d = 2'-deoxy (DNA)
Property name: target mRNA inhibition (%)
Numbers only, in %.

Guide cases for target mRNA inhibition, answers given:
| Item sequence | target mRNA inhibition [%] |
| --- | --- |
| CTTACTGTTCAGCAGTCTGC (sugars e5 d10 e5, PS) | 90 |
| GAGCACAGCGATGAGCCAGC (sugars e5 d10 e5, PS) | 91 |

Now look at this one.
Request: Request the reported target mRNA inhibition associated with CCAATGCCTAGGTCACAGTT (sugars e5 d10 e5, PS)
Response: 83

====

Target: APOL1
Conditions: ASO, A431, 0.0625 µM
After the bases stand the sugars from the 5' end (letter, count) and the backbone: PS all phosphorothioate, else s phosphorothioate and o phosphodiester by linkage. Methylation of C is not given here. e = 2'-O-(2-methoxyethyl) (MOE); k = constrained ethyl (cEt); d = 2'-deoxy (DNA)
Label YES when target mRNA inhibition >= 50%; otherwise NO.

Solved entries:
| Item sequence | Classification |
| --- | --- |
| TCATTAGTGCTATAGA (sugars k4 d9 k3, PS) | NO |
| TGTTATATTTGATCCT (sugars kekddddeekkddddd, PS) | NO |
| CAGATGTGTTTAGGCA (sugars k4 d9 k3, PS) | YES |
| TGGGTCAAAAGCGATG (sugars k4 d9 k3, PS) | NO |
| TTATATTTGATCCTCA (sugars kkddddkdkdkddddd, PS) | NO |
| CATTCAGAATTTCCAC (sugars k3 d4 k3 e1 d5, PS) | NO |
| AAGGTTGTCCAGAGCT (sugars k4 d9 k3, PS) | NO |
| TTTGTAAGTGCAACCA (sugars kekddddeekkddddd, PS) | NO |
| AATTTTATGGAACCTC (sugars k3 d10 k3, PS) | NO |
| AGCTTTAAACTCAGGT (sugars kdddddkekekddddd, PS) | NO |

Request: # bool: target mRNA inhibition of TTATTGCAGGCTCCAA (sugars k4 d9 k3, PS) >= 50%
Response: NO

Request: Does the sequence TCATAGATACTCCTCA (sugars k3 d10 k3, PS) have recorded target mRNA inhibition that is 50% or more?
Response: NO

Request: Evaluate GCTTTAAACTCAGGTG (sugars kkddddekekeddddd, PS) : target mRNA inhibition at minimum 50%?
Response: NO

Request: Test whether the sequence CTGTTCTAACTCTTGG (sugars kkddddekekeddddd, PS) records target mRNA inhibition of 50% or higher.
Response: YES

Request: Item ACTTTTTCACCATAGC (sugars k4 d9 k3, PS) with target mRNA inhibition of 50% or above?
Response: YES

Request: Is the recorded value of target mRNA inhibition equal to or greater than 50% for this sequence? GTAGAATGAGCAGGTC (sugars k4 d9 k3, PS)
Response: YES

====

Target: IRF5
Settings: ASO, KARPAS-229, 12 µM
After the bases stand the sugars from the 5' end (letter, count) and the backbone: PS all phosphorothioate, else s phosphorothioate and o phosphodiester by linkage. Methylation of C is not given here. e = 2'-O-(2-methoxyethyl) (MOE); k = constrained ethyl (cEt); d = 2'-deoxy (DNA)
Answer each item with its documented target mRNA inhibition.
Give bare numbers, in %.

Completed entries (count: 3):
| Item sequence | Tested on | target mRNA inhibition (%) |
| --- | --- | --- |
| GGTTCTTGGACTCTCA (sugars kkkdddddddddkeke, PS) | IRF5 | 81 |
| GGGCACAGCGCAGGTT (sugars kkddddddddkekekk, PS) | IRF5 | 76 |
| GGTCTTTGAGGTCTGG (sugars kkddddddddddkeke, PS) | IRF5 | 72 |

// batch mode: one target mRNA inhibition value per listed entry
1. TCTGATATGATACCTA (sugars k3 d10 k3, PS)
2. GGGCACAGCGCCAGGTT (sugars kddddddddddkekekd, PS)
3. ACCATTCTATGCCTTT (sugars k3 d10 k3, PS)
4. CCAATTTTGCATTCCA (sugars kkddddddddddkeke, PS)
5. GGAAGTGAGTCTCAAA (sugars k3 d9 k3 e1, PS)
6. TATTTCTGCTCCAGGT (sugars kkddddddddddkeke, PS)
7. TTATTTCTGCTCCAGG (sugars kkkddddddddkdkdk, PS)
8. TGTGACTGTATTACCT (sugars k3 d10 k3, PS)

Response:
1. 83
2. 87
3. 86
4. 82
5. 76
6. 79
7. 79
8. 78

I need target mRNA inhibition for every entry listed below, if you could help.
1. CAGGTTCTTGGACTCT (sugars kekdddddddddeekk, PS)
2. GGTCTTTGAGGTCTGG (sugars k2 d9 e3 k2, PS)

Response:
1. 74
2. 79
